Target: T1, human C1s (human)
T1 chain: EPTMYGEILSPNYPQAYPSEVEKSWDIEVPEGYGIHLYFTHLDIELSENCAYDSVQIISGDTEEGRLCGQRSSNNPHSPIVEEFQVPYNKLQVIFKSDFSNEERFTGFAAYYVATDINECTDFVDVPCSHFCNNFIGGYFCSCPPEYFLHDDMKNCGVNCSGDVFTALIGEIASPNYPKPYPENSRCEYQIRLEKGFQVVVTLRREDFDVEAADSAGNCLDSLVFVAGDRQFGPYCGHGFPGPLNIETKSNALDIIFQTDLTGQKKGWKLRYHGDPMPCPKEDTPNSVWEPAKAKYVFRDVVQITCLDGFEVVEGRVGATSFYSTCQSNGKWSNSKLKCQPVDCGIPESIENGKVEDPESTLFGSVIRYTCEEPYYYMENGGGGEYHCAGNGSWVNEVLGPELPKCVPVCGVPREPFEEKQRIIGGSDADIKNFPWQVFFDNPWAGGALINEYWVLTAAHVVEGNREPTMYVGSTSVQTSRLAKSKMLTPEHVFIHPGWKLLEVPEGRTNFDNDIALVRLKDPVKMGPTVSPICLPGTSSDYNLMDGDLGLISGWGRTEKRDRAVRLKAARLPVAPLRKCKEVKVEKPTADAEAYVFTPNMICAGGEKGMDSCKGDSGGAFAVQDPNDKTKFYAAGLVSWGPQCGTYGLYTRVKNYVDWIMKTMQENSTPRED
Assay: SPR pH 5.8 low Ca 37C, low response
endpoint: pKd
Notebook: values listed as pKd are -log10 of the concentration (mol/L).

• IPN92H0033/IPN93L0031 (antibody, V domains shown) VH: EVMLVESGGGLVKPGGSLRLSCAASGFTFSNYAMSWVRQAPGKGLEWVATISSGGSHTYYLDSVKGRFTISRDNSKDTLYLQMNSLRAEDTALYYCARLFTGHAMDYWGQGTLVTVSS VL: QIVLTQSPATLSLSPGERATLSCTASSSVSSSYLHWYQQKPGKAPKLWIYSTSNLASGVPSRFSGSGSGTDYTLTISSLQPEDFATYYCHQYHRHHPITFGQGTKLEIK = 7.86
• IPN92H0033/IPN93L0021 (antibody, V domains shown) VH: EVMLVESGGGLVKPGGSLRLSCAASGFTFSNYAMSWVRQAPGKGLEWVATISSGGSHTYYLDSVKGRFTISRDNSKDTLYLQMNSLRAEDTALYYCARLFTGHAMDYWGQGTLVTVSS VL: QIVLTQSPATLSLSPGERATLSCTASSSVSSSYLHWYQQKPGKAPKLWIYSTSNLASGVPSRFSGSGSGTDYTLTISSLQPEDFATYYCHQHYRLPPITFGQGTKLEIK = 8.12

Proceed to the following item.
Given IPN009VH2/IPN93L0031 (antibody, V domains shown) VH: EVMLVESGGGLVKPGGSLRLSCAASGFTFSNYAMSWVRQAPGKGLEWVATISSGGSHTYYLDSVKGRFTISRDNSKDTLYLQMNSLRAEDTALYYCARLFTGYAMDYWGQGTLVTVSS VL: QIVLTQSPATLSLSPGERATLSCTASSSVSSSYLHWYQQKPGKAPKLWIYSTSNLASGVPSRFSGSGSGTDYTLTISSLQPEDFATYYCHQYHRHHPITFGQGTKLEIK , state its recorded pKd.
5.30
